molecular target: Sodium channel protein type 9 subunit alpha (Rattus norvegicus, UniProt O08562); test: Inhibition of rat NaV1.7 by cell based whole cell voltage clamp method
Sequence (O08562 whole entry): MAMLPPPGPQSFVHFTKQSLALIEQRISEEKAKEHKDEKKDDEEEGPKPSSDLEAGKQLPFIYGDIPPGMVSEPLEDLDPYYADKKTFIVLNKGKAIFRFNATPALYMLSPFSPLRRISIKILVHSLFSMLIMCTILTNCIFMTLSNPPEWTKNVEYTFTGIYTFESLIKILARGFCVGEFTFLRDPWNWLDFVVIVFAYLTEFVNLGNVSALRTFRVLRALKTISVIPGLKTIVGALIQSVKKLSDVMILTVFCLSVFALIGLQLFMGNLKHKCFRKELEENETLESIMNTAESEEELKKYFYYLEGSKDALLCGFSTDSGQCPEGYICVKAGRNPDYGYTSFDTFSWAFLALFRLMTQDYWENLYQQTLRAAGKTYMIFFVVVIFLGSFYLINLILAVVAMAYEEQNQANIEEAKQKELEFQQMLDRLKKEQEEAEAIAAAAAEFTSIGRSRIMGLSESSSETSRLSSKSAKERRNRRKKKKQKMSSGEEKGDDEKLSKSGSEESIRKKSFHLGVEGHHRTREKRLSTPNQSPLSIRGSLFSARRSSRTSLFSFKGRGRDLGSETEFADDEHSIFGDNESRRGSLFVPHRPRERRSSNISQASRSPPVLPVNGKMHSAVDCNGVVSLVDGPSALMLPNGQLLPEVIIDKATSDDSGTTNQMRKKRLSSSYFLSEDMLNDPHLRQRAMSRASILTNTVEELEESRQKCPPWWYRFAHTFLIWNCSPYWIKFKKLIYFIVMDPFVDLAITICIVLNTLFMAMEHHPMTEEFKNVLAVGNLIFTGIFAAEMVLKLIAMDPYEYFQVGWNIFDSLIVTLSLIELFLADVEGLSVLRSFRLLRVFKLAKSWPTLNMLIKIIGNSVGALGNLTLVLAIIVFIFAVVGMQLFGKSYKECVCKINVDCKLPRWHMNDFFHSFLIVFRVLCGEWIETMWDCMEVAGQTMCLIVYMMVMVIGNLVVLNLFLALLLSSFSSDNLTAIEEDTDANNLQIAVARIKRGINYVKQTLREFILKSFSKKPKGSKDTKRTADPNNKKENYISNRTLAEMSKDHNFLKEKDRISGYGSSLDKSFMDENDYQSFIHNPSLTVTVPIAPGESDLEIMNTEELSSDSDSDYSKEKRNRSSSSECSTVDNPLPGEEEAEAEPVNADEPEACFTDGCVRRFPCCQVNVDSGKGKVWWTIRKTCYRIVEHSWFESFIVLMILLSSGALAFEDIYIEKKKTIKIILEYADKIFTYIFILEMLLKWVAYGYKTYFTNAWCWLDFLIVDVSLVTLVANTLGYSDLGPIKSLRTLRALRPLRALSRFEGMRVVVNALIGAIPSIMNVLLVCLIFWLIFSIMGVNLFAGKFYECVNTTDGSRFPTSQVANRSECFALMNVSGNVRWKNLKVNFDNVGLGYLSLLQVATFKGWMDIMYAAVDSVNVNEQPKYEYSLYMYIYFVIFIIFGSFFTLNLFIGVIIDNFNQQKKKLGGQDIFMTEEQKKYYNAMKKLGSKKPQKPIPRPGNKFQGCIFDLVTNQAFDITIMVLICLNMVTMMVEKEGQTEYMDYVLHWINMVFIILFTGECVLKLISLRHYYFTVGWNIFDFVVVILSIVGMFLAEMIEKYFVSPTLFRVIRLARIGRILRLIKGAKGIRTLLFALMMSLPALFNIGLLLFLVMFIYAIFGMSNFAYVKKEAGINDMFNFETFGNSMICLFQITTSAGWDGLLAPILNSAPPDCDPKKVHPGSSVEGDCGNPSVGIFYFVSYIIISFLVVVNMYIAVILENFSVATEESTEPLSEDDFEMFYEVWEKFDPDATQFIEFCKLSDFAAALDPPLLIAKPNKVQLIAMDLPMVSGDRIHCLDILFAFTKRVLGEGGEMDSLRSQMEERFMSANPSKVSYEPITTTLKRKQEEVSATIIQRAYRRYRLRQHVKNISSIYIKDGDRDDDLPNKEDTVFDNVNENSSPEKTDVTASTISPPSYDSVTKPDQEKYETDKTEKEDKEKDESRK
Listing: IC50 of selected compounds
endpoint-name: IC50 (nM)

[
  {
    "smi": "N#Cc1cc(C(F)(F)F)ccc1N1CCOc2cc(S(=O)(=O)Nc3nccs3)c(F)cc21",
    "endpoint-name": "IC50",
    "measurement-units": "nM",
    "bound-type": "=",
    "observed-value": 67
  },
  {
    "smi": "N#Cc1cc(C(F)(F)F)ccc1N1CCOc2cc(S(=O)(=O)Nc3nccs3)ccc21",
    "endpoint-name": "IC50",
    "measurement-units": "nM",
    "bound-type": "=",
    "observed-value": 1100
  },
  {
    "smi": "N#Cc1cc(C(F)(F)F)ccc1N1CCOc2cc(S(=O)(=O)Nc3nccs3)cc(F)c21",
    "endpoint-name": "IC50",
    "measurement-units": "nM",
    "bound-type": "=",
    "observed-value": 560
  },
  {
    "smi": "O=S(=O)(Nc1ccncn1)c1ccc2c(c1)OCCN2c1ccc(C(F)(F)F)cc1C1=CCNCC1",
    "endpoint-name": "IC50",
    "measurement-units": "nM",
    "bound-type": ">",
    "observed-value": 30000
  },
  {
    "smi": "Cn1nccc1-c1ccccc1Oc1ccc(S(=O)(=O)Nc2nccs2)cc1C#N",
    "endpoint-name": "IC50",
    "measurement-units": "nM",
    "bound-type": "=",
    "observed-value": 4200
  },
  {
    "smi": "COc1ccccc1N1CCOc2cc(S(=O)(=O)Nc3nccs3)ccc21",
    "endpoint-name": "IC50",
    "measurement-units": "nM",
    "bound-type": "=",
    "observed-value": 1600
  },
  {
    "smi": "COc1cc(C#N)ccc1N1CCOc2cc(S(=O)(=O)Nc3nccs3)ccc21",
    "endpoint-name": "IC50",
    "measurement-units": "nM",
    "bound-type": "=",
    "observed-value": 850
  },
  {
    "smi": "COc1cc(C(F)(F)F)ccc1N1CCOc2cc(S(=O)(=O)Nc3nccs3)ccc21",
    "endpoint-name": "IC50",
    "measurement-units": "nM",
    "bound-type": "=",
    "observed-value": 390
  },
  {
    "smi": "N#Cc1cc(C(F)(F)F)ccc1N1CCOc2cc(S(=O)(=O)Nc3nccs3)c(Cl)cc21",
    "endpoint-name": "IC50",
    "measurement-units": "nM",
    "bound-type": "=",
    "observed-value": 50
  },
  {
    "smi": "COc1cc(F)ccc1N1CCOc2cc(S(=O)(=O)Nc3nccs3)ccc21",
    "endpoint-name": "IC50",
    "measurement-units": "nM",
    "bound-type": "=",
    "observed-value": 880
  },
  {
    "smi": "O=S(=O)(Nc1ccncn1)c1ccc2c(-c3ccc(C(F)(F)F)cc3C3=CCNCC3)cccc2c1",
    "endpoint-name": "IC50",
    "measurement-units": "nM",
    "bound-type": ">",
    "observed-value": 30000
  },
  {
    "smi": "N#Cc1cc(C(F)(F)F)ccc1N1CCOc2cc(S(=O)(=O)Nc3ccncn3)ccc21",
    "endpoint-name": "IC50",
    "measurement-units": "nM",
    "bound-type": "=",
    "observed-value": 3000
  },
  {
    "smi": "N#Cc1cc(C(F)(F)F)ccc1N1CCOc2c1ccc(S(=O)(=O)Nc1nccs1)c2F",
    "endpoint-name": "IC50",
    "measurement-units": "nM",
    "bound-type": "=",
    "observed-value": 1700
  }
]
